For each record, write down the corresponding inhibition at 100 µM.
tested on: Platelet; experiment: Antiplatelet activity in human platelet rich plasma assessed as inhibition of arachidonic acid-induced platelet aggregation at 100 uM preincubated for 2 mins followed by arachidonic acid addition by turbidimetric method relative to control; format: functional
Answers are plain numbers, in %.

// known answers, use as guide
Smi	Experimental system	inhibition at 100 µM, %
Cc1nn(-c2ccccc2)c2nc(C(F)(F)F)cc(C(=O)N/N=C/c3ccc([N+](=O)[O-])cc3)c12	Platelet	0
Cc1cc(C(=O)N/N=C/c2ccc(Cl)cc2)c2c(C)nn(-c3ccccc3)c2n1	Platelet	83.8

Next item in the queue.
Please give the documented inhibition at 100 µM of Cc1ccc(/C=N/NC(=O)c2cc(C)nc3c2c(C)nn3-c2ccccc2)cc1
89.2

* * *

system: Platelet; test: Antiplatelet activity in human platelet rich plasma assessed as inhibition of arachidonic acid-induced platelet aggregation at 100 uM preincubated for 2 mins followed by arachidonic acid addition by turbidimetric method relative to control; type: functional
Parameter threshold = 6%. Response is Satisfied when inhibition at 100 µM meets or exceeds it, else Not satisfied.

A selection of reference data follows.
Smi	Class
CC(=O)Oc1ccccc1C(=O)O	Satisfied
Cc1cc(C(=O)N/N=C/c2ccc(C#N)cc2)c2c(C)nn(-c3ccccc3)c2n1	Satisfied
Cc1cc(C(=O)N/N=C/c2ccc(F)cc2)c2c(C)nn(-c3ccccc3)c2n1	Satisfied
CCOc1ccc(/C=N/NC(=O)c2cc(C)nc3c2c(C)nn3-c2ccccc2)cc1	Not satisfied
Cc1nn(-c2ccccc2)c2nc(C(F)(F)F)cc(C(=O)N/N=C/c3ccc(Cl)cc3)c12	Satisfied

API: above_or_equal(metric=inhibition at 100 µM, cutoff=6%) for item Cc1ccc(/C=N/NC(=O)c2cc(C(F)(F)F)nc3c2c(C)nn3-c2ccccc2)cc1
Not satisfied

API: above_or_equal(metric=inhibition at 100 µM, cutoff=6%) for item CCOc1ccc(/C=N/NC(=O)c2cc(C(F)(F)F)nc3c2c(C)nn3-c2ccccc2)cc1
Not satisfied

API: above_or_equal(metric=inhibition at 100 µM, cutoff=6%) for item Cc1nn(-c2ccccc2)c2nc(C(F)(F)F)cc(C(=O)N/N=C/c3ccc(C#N)cc3)c12
Not satisfied

* * *

For each record, write down the corresponding IC50.
tested on: Platelet; test: Antiplatelet activity in human platelet rich plasma assessed as inhibition of arachidonic acid-induced platelet aggregation preincubated for 2 mins followed by arachidonic acid addition by turbidimetric method relative to control; type: functional, cell-based

// known answers, use as guide
Smi	IC50
Cc1cc(C(=O)N/N=C/c2ccc(F)cc2)c2c(C)nn(-c3ccccc3)c2n1	3.67 to 10.2 µM
Cc1cc(C(=O)N/N=C/c2ccc(Br)cc2)c2c(C)nn(-c3ccccc3)c2n1	3.67 to 10.2 µM
Cc1cc(C(=O)N/N=C/c2ccc(O)cc2)c2c(C)nn(-c3ccccc3)c2n1	3.67 to 10.2 µM
Cc1ccc(/C=N/NC(=O)c2cc(C)nc3c2c(C)nn3-c2ccccc2)cc1	3.67 to 10.2 µM
Cc1cc(C(=O)N/N=C/c2ccc([N+](=O)[O-])cc2)c2c(C)nn(-c3ccccc3)c2n1	78.9 µM

# per-item lookup of IC50; items listed below
1. Cc1cc(C(=O)N/N=C/c2ccc(Cl)cc2)c2c(C)nn(-c3ccccc3)c2n1
2. CC(=O)Oc1ccccc1C(=O)O
3. O=C(O)/C=C/c1ccc(Cn2ccnc2)cc1

3.67 to 10.2 µM
37.6 µM
53.1 µM
